Tested on: M14 melanoma
Experiment: NCI tumour cell line growth inhibition, 48 h
Entries and their GI50
reported-metric: GI50

# compound, reported-metric, result
data = [
    ("COc1ccc(Nn2c(SCC(=O)Nc3nc(-c4ccc(Cl)cc4)cs3)nc(C)c2C)cc1", "GI50", "3.02 µM"),
    ("CN(C)c1ccc(N=Cc2c([O-])ccc3ccccc23)cc1.[C-]#[O+].[C-]#[O+].[Ir]", "GI50", "20.7 µM"),
    ("CC(=O)c1ccc(NC(=O)CSc2nnc(-c3cc(-c4ccc(C)cc4)nc4ccccc34)o2)cc1", "GI50", "5.65 µM"),
    ("CC(C)[C@@]12C[C@@H](OC(=O)[C@H]3CO3)[C@@](C)(O1)[C@@H]1CC[C@@H](C)[C@H]1[C@@H]2OC(=O)/C=C/c1ccccc1", "GI50", "27 µM"),
    ("Cc1nc2sccn2c(=O)c1CCN1CCC(=C(c2ccc(F)cc2)c2ccc(F)cc2)CC1", "GI50", "9.53 µM"),
    ("CN1CCCNc2c(c(=O)c2=O)NCCCN(C)CCCNc2c(c(=O)c2=O)NCCCN(C)CCCNc2c(c(=O)c2=O)NCCCN(C)CCCNc2c(c(=O)c2=O)NCCCN(C)CCCNc2c(c(=O)c2=O)NCCCN(C)CCCNc2c(c(=O)c2=O)NCCCN(C)CCCNc2c(c(=O)c2=O)NCCC1", "GI50", "6.86 µM"),
    ("COCC1CCCN1c1ccc(/C=C(/C#N)C(N)=S)cc1 (configuration not stated)", "GI50", "> 100 µM"),
]

From: PubChem BioAssay (NCI)
